System: HepG2
Test protocol: Cytotoxicity against human HepG2 cells assessed as reduction in cell viability at 5 uM after 24 hrs by MTT assay
Format: cell-based
Experimental parameters: hepg2, 24 h
Observable: Activity

> print(dat)
                            chemical.smiles  observable  assay.result
1  COc1cc(/C=C/C(=O)C(C)(C)C(=O)/C=C/c2ccc(O)c(OC)c2)ccc1O    Activity     Non-Toxic
2  COc1cccc(/C=C/C(=O)C(C)(C)C(=O)/C=C/c2cccc(OC)c2)c1    Activity     Non-Toxic
3  CC(C)(C(=O)/C=C/c1ccccc1)C(=O)/C=C/c1ccccc1    Activity     Non-Toxic
4  COc1ccccc1/C=C/C(=O)C(C)(C)C(=O)/C=C/c1ccccc1OC    Activity     Non-Toxic
5  CC(C)(C(=O)/C=C/c1ccccc1C(F)(F)F)C(=O)/C=C/c1ccccc1C(F)(F)F    Activity     Non-Toxic
6  CC(C)(C(=O)/C=C/c1ccccc1O)C(=O)/C=C/c1ccccc1O    Activity     Non-Toxic
7  COc1cccc(OC)c1/C=C/C(=O)C(C)(C)C(=O)/C=C/c1c(OC)cccc1OC    Activity     Non-Toxic
